Reference source for all entries: patent US20190309056A1

For each record, write down the corresponding Kd.
Tested system: T1, recombinant human Macrophage Migration Inhibitory Factor (MIF 2-115) (human, UniProt P14174 2-115)
T1 construct: rhMIF bought from R&D Systems; The background describes MIF as a homotrimer but also as monomer, dimer or higher oligomers; In the cell assays (THP-1, human PBMC) the MIF is the cells' own; also called rhMIF; human MIF
T1 sequence (P14174 2-115): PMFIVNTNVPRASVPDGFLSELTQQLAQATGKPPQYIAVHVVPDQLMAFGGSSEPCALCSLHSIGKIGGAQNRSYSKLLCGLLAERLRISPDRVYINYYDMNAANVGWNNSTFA
Assay procedure: SPR (BIAcore T200), rhMIF immobilised on CM5 chip, 1:1 Langmuir model
A number alone suffices; assume nM.

q: Fill in Kd for record anti-MIF ISVD E10 (VHH, Family VII; Monovalent llama VHH expressed in E. coli from pAX100 and purified by IMAC (His-Trap) and gel filtration; also called Nb E10; monovalent E10) VHH: EVQLVESGGGSVQAGDSLRLSCAASGRTLSNSIMGWFRQAPGKEREFVANINWSGTSRLYADSVKGRFTISRDNTKSTVYLQMNSLKPEDTAIYYCAARSSTMSATDYWGQGTQVTVSS
a: 64.5

q: Fill in Kd for record anti-MIF ISVD D2 (VHH, Family III; Expressed from pAX100, purified by IMAC) VHH: EVQLVESGGGLVQDGGSLRLSCAASGRTASIHTMGWFRQAPGQERGFVGNIGWNYGLTLYADSVKGRFTISRDNAKNTVYLQMNNLKPEDTAVYYCAARIGTTPYDYWGQGTQVTVSS
a: 16.5

q: Fill in Kd for record anti-MIF ISVD A2 (VHH, Family III; Expressed from pAX100, purified by IMAC) VHH: EVQLVESGGGLVQDGGSLRLSCAASGRTASIQVMGWFRQAPGKEREFVGNIGWNYGLTLYADPVKGRFTISRDNAKNTVYLQMNNLKPEDTAVYYCAARIGTITYDYWGQGTQVTVSS
a: 2.96

q: Fill in Kd for record anti-MIF ISVD E5 (VHH, Family V. Expressed from pAX100, purified by IMAC; also called Nb E5) VHH: EVQLVESGGGLVHAGGSLRLSCAASGRTFSSYFMGWFRQAPGKAREFVANINFSGGTTVYASSVKGRFTISRDNSKNTVYLQMNSVKPEDTAVYYCVARGLTQDYDYWGQGTQVTVSS
a: 9.41
